The measurements presented in this section are drawn from PubChem BioAssay AID602156.

Test system: P. yoelii liver stage in HepG2-A16-CD81EGFP, imaging
Assay Explanation: exo-erythrocytic parasite development inhibition – imaging, Malaria Box, P. yoelii, HepG2-A16-CD81EGFP, dose response (AID 602156);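 further: infected cells exposed to compound for 48 hours before fixation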
Activity calls are given as the source filed them. How the calls were made is not given here.
Form entry, call: pick from active, inactive

Recorded test outcome, item `Clc1cccc(Nc2nc(NCc3ccco3)c3ccccc3n2)c1`
active

`COc1ccccc1-n1c(C=Cc2cc(Br)ccc2O)nc2ccccc2c1=O` ?
active

Lookup `Cc1ccc2cc(C)c(Nc3ccc(Cl)cc3)nc2c1`
active

Do the same for CCCCC(CC)C(=O)N1CCN(C(CC)c2nc3ccccc3c(=O)n2C)CC1 (stereo unspecified) please
active

Thanks! And CCOC(=O)C1=C(C)NC2=C(C(=O)C(C(=O)OCC)C(c3ccc(OC)cc3)C2)C1c1ccc(OC)c(OC)c1 (stereo unspecified) ?
active

Would you mind doing CCOc1ccc(NC(=O)C(C)Sc2nc3ccccc3[nH]2)cc1 (stereo unspecified) as well?
inactive

// repeat for `CCCc1nc2ccc(NC(=O)c3ccco3)cc2c(=O)n1Cc1ccc(-c2ccccc2)cc1` and report
active

Okay, and `Cc1ccc2[nH]c(C)c(Br)c(=O)c2c1` ?
active

Could you do the same for `COc1cccc(OC)c1C(=O)Nn1c(-c2cccc(C)c2)nc2ccccc2c1=O` , please?
inactive

Same lookup for `COc1ccc2nc(C)cc(Nc3ccc(Cl)c(Cl)c3)c2c1` , please.
active

And for COc1cccc(NC(=O)c2ccc(NCCCN3CC(C)CC(C)C3)c([N+](=O)[O-])c2)c1 (stereo unspecified) ?
active

Now try CCCC(=O)NC(c1ccc(Cl)cc1)c1ccc2cccnc2c1O (stereo unspecified) .
active

One more compound: `CCc1c(C#N)c(N)nc(SCC(=O)c2ccc(C)cc2)c1C#N`
inactive

Please give the result for `COc1ccccc1CNC(=O)c1nn(-c2ccc(Cl)cc2)c(=O)c2ccccc12` too.
inactive

Proceed to Cc1ccc(S(=O)(=O)Nc2nc3n(n2)C(c2ccccc2)C=C(c2ccccc2)N3)cc1 (stereo unspecified)
inactive

Also, `Cc1ccc(Nc2cc(C)nc(NCc3ccccc3)n2)c(C)c1` please.
active

Param item: `CCN1CCN(c2cc(C)c3cc(NC(=O)c4cc(OC)cc(OC)c4)ccc3n2)CC1`
active

Another compound to look at: CCOC(=O)C1=C(C)NC2=C(C(=O)C(C(=O)OCC)C(c3cccc(OC)c3)C2)C1c1cc(OC)c(OC)c(OC)c1 (stereo unspecified)
active

Please answer likewise for CC(C)NCC(O)Cn1c2ccc(Cl)cc2c2cc(Cl)ccc21 (stereo unspecified)
active

Same again, this time with Oc1cccc2ccc[n+](CC(O)Cn3c4ccccc4c4ccccc43)c12 (stereo unspecified)
active

Here is the next compound: CCC(Sc1nnc(-c2ccc(C)cc2)c(-c2ccc(C)cc2)n1)C(=O)NCCOC (stereo unspecified)
active
